Numbers sourced from PubChem BioAssay (NCATS).

Molecular target: Thyroid hormone receptor beta (Homo sapiens)
Assay: qHTS assay for small molecule antagonists of thyroid hormone receptor beta signaling (AID 588547);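 also: cells stimulated with 0.4 nM T3 agonist during compound exposure; series mostly up to about 77 µM; % is scaled to controls: 0 for no effect and ±100 for the full control effect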
Settings: TR-UAS-bla HEK293, beta-lactamase ratio, antagonist mode, 18 h
Inconclusive results are not listed.
Consider the following molecules and their measured activity change % (negative = inhibition) readings.
// units = %; emit number, no label

Record excerpt, results attached:
In [3]: df
Out[3]:
                            compound_string  observed_value
0                       O=C(O)CCCCCCCC(=O)O           -5.44
1  O=c1[nH]c(=O)n([C@H]2C[C@H](O)[C@@H](CO)O2)cc1Br            7.23
2           COc1cc(Cc2cnc(N)nc2N)cc(OC)c1OC           -6.78

Next:
Please report the measured activity change % (negative = inhibition) for C[C@]12C=CC(=O)C=C1CC[C@H]1[C@@H]3C[C@@H](O)[C@](O)(C(=O)CO)[C@@]3(C)C[C@H](O)[C@@]12F
-4.06
